viability, T/C for assorted molecules
system: 598228-144-R-J1-PDC complex spheroid viability; assay: Anticancer human tumor 598228-144-R-J1-PDC patient-derived serous endometrial adenocarcinoma cell line growth inhibition [GQUAD]; details: second compound 0.316 µM; first compound 1 µM; hits give low values
Kindly provide the numeric value in % only, without the unit symbol.

[in] Give the measured viability, T/C for C=CCn1c(=O)c2cnc(Nc3ccc(N4CCN(C)CC4)cc3)nc2n1-c1cccc(C(C)(C)O)n1 + Cc1[nH]c2ccc(F)cc2c1-c1nc2c3cccnc3c3ncccc3c2[nH]1
[out] 48.9

[in] Tell us which viability, T/C value is on record for Nc1ccn(C2OC(CO)C(O)C2(F)F)c(=O)n1 (stereo not given) + Cc1[nH]c2ccc(F)cc2c1-c1nc2c3cccnc3c3ncccc3c2[nH]1
[out] 39.9

[in] Item COc1ncnc(C2CC2)c1-c1ncc2cnn(Cc3ccc(-c4nc(C(F)(F)F)cn4C(C)C)cc3)c2n1 + Cc1cnc(CNC(=O)c2c(=O)c3ccc(N4CCCN(C)CC4)nc3n3c2sc2ccccc23)cn1 : provide viability, T/C
[out] 73.4

[in] Name the recorded viability, T/C of the item C=CC(=O)N1CCN(c2nc(=O)n(-c3c(C)ccnc3C(C)C)c3nc(-c4c(O)cccc4F)c(F)cc23)C(C)C1 (stereo not given) + Cc1cnc(CNC(=O)c2c(=O)c3ccc(N4CCCN(C)CC4)nc3n3c2sc2ccccc23)cn1 in your answer.
[out] 73.3

[in] For CC(C)n1c(=O)n(C)c2cnc3cc(F)c(-c4ccc(OCCCN5CCCCC5)nc4)cc3c21 + Cc1cnc(CNC(=O)c2c(=O)c3ccc(N4CCCN(C)CC4)nc3n3c2sc2ccccc23)cn1 , write its viability, T/C.
[out] 48.8

====

system: 598228-144-R-J1-PDC complex spheroid viability; assay: Anticancer human tumor 598228-144-R-J1-PDC cell line growth inhibition [GQUAD]; conditions: second compound 10 µM; first compound 10 µM; active = viability on the fitted dose curve at most 10% of control; inactive = the rest;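 note: spheroids exposed to the agents for one week before reading; percent of vehicle DMSO control viability so 100% = untreated growth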
Choose one outcome from this list and give only that: TRUE (active), FALSE (inactive)

[in] What was the test verdict on Cc1cccc(N(C)C(=O)C2C(O)CCN2c2nc(C)cc(C(F)(F)F)c2C#N)c1 (stereo not given) + Cc1cnc(CNC(=O)c2c(=O)c3ccc(N4CCCN(C)CC4)nc3n3c2sc2ccccc23)cn1 ?
[out] FALSE

====

test system: 598228-144-R-J1-PDC complex spheroid viability; test: Anticancer human tumor 598228-144-R-J1-PDC cell line growth inhibition [GQUAD]; conditions: second compound 10 µM; first compound 0.00316 µM; hits give low values;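 note: spheroids exposed to the agents for one week before reading; percent of vehicle DMSO control viability so 100% = untreated growth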
PROPERTY NAME: viability, T/C (%)
# unit: % | format: bare number

COMPOUND | viability, T/C / %
CCc1c2c(nc3ccc(O)cc13)-c1cc3c(c(=O)n1C2)COC(=O)[C@]3(O)CC + CN(C)c1ccc(Nc2c3ccc(NC(=O)CCN4CCCC4)cc3nc3cc(NC(=O)CCN4CCCC4)ccc23)cc1 | 33.6
CCc1c2c(nc3ccc(O)cc13)-c1cc3c(c(=O)n1C2)COC(=O)[C@]3(O)CC + Cc1[nH]c2ccc(F)cc2c1-c1nc2c3cccnc3c3ncccc3c2[nH]1 | 45.1

[in] Give the value of viability, T/C reported for the following: Cc1[nH]c2ccccc2c1CCNCc1ccc(/C=C/C(=O)NO)cc1 + CN(C)c1ccc(Nc2c3ccc(NC(=O)CCN4CCCC4)cc3nc3cc(NC(=O)CCN4CCCC4)ccc23)cc1
[out] 102
